# Test system: hepatocytes
# METHOD_DESCRIPTION: RNA-seq of hepatocytes treated with Phase III failure compounds
# CONDITION_LABEL: gene RSAD1; hepatocytes
ENDPOINT: RNA-seq results: RSAD1
Response field accepts a number only; no unit should be typed.

**Query** Give hepatocytes RNA-seq results: RSAD1 for COc1cc2c(Oc3ccc4[nH]c(C)cc4c3F)ncnc2cc1OCCCN1CCCC1
**Result** 0.13

**Query** Give hepatocytes RNA-seq results: RSAD1 for COc1cc2nccc(Oc3ccc(NC(=O)Nc4cc(C)on4)c(Cl)c3)c2cc1OC
**Result** 0.01

**Query** Give hepatocytes RNA-seq results: RSAD1 for COc1cc(Nc2ncc(F)c(Nc3ccc4c(n3)N(COP(=O)(O)O)C(=O)C(C)(C)O4)n2)cc(OC)c1OC
**Result** 0.22

**Query** Give hepatocytes RNA-seq results: RSAD1 for C=CCNC1=C2C[C@@H](C)C[C@H](OC)[C@H](O)[C@@H](C)/C=C(\C)[C@H](OC(N)=O)[C@@H](OC)/C=C\C=C(/C)C(=O)NC(=CC1=O)C2=O
**Result** −0.23

**Query** Give hepatocytes RNA-seq results: RSAD1 for Cn1cnc2c(F)c(Nc3ccc(Br)cc3Cl)c(C(=O)NOCCO)cc21
**Result** −0.06

**Query** Give hepatocytes RNA-seq results: RSAD1 for CCOC(=O)N1c2ccc(C(F)(F)F)cc2[C@@H](N(Cc2cc(C(F)(F)F)cc(C(F)(F)F)c2)C(=O)OC)C[C@H]1CC
**Result** −0.11

**Query** Give hepatocytes RNA-seq results: RSAD1 for Cn1cc(C2=C(c3cn(C4CCN(Cc5ccccn5)CC4)c4ccccc34)C(=O)NC2=O)c2ccccc21
**Result** 0.26
